The reported measurements were obtained from patent US20200271647A1.

Biological target: T1, human c-Met antigen (Sino Biological) (human, UniProt P08581 25-932)
T1 construct: Bought antigen used as the analyte in SPR; also called hepatocyte growth factor receptor; HGFR
T1 sequence (P08581 25-932 limits assumed): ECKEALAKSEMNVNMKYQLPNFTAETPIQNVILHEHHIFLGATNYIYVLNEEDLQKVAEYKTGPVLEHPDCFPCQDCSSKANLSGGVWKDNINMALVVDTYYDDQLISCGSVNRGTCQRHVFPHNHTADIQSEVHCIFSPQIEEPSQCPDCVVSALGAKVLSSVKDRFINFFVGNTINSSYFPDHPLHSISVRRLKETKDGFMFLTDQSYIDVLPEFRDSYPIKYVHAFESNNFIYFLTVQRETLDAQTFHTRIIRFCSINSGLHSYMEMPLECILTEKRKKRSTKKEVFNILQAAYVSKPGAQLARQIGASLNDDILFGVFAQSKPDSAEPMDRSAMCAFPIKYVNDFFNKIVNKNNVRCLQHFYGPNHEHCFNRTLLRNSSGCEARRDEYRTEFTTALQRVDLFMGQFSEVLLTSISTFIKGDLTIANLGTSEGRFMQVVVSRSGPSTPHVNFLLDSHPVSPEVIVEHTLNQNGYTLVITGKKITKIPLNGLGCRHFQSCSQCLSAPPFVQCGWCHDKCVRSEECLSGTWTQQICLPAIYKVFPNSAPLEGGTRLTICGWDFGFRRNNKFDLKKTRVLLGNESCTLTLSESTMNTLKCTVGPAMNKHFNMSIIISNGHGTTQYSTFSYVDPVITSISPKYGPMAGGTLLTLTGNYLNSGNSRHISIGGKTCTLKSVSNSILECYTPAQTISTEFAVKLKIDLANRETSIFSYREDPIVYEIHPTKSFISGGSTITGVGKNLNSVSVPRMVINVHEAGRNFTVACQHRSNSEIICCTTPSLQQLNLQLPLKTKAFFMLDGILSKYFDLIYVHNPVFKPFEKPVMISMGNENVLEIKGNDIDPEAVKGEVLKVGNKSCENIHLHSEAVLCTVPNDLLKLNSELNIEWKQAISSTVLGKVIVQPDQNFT
Assay: derived from SPR KD (BIACORE T200); values fit 3.52/KD, i.e. relative to the best KD (VH5/Vk0); reference not given
Description: After combining the above variants, each combination was subjected to measurement of a binding ability (that is, affinity). Then, using BIACORE T200 (serial no. 1909913) device, BIACORE T200 Control Software V2.0.1 and BIACORE T200 Evaluation Software V3.0 (GE Healthcare, Uppsala, Sweden) analysis program, affinity of each candidate antibody to the antigen, c-Met, was determined along with a dissociation constant (KD value). […]
Index 1 (affinity index from KD) vs 0.8: at or above is Met, below is Not met.

Please check the record VH0/Vk2 (antibody, V domains shown, also called anti-cMet candidate antibody VH0/Vk2) VH: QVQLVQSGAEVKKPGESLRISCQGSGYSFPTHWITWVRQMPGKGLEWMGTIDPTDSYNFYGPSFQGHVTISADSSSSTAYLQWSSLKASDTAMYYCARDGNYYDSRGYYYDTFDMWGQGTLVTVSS VL: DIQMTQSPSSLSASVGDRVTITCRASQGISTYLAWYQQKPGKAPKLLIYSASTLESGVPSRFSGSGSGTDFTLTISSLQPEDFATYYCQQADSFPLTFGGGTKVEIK and state if its Index 1 (affinity index from KD) is at or above 0.8.
Not met

Please check the record VH4/Vk0 (antibody, V domains shown, CDR-grafted variant of the IgG1-based anti-cMet antibody 1E4; also called anti-cMet candidate antibody VH4/Vk0) VH: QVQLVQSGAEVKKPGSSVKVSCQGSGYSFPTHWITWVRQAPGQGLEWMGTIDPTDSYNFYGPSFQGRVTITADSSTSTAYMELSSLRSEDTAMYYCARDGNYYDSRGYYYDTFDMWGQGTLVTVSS VL: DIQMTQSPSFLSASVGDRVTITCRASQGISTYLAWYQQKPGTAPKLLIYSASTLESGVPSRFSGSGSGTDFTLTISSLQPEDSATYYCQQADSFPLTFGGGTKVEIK and state if its Index 1 (affinity index from KD) is at or above 0.8.
Met

Please check the record VH4/Vk2 (antibody, V domains shown, CDR-grafted variant of the IgG1-based anti-cMet antibody 1E4; also called anti-cMet candidate antibody VH4/Vk2) VH: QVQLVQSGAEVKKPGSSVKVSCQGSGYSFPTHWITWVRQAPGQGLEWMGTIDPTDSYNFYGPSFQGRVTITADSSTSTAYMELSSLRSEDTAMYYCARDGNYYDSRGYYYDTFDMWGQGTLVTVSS VL: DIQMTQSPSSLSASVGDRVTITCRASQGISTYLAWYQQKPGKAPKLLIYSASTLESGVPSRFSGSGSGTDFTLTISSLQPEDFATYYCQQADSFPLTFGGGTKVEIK and state if its Index 1 (affinity index from KD) is at or above 0.8.
Met

Please check the record VH6/Vk0 (antibody, V domains shown, CDR-grafted variant of the IgG1-based anti-cMet antibody 1E4; also called anti-cMet candidate antibody VH6/Vk0) VH: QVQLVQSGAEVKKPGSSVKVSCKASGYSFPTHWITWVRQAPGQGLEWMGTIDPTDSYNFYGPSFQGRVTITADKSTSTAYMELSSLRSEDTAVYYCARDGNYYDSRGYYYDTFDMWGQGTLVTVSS VL: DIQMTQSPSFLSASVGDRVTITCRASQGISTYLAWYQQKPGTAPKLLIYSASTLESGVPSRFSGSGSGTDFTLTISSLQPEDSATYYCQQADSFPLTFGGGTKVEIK and state if its Index 1 (affinity index from KD) is at or above 0.8.
Met
